systemName: DDR2 (Homo sapiens (Human), UniProt Q16832)
Sequence (Q16832 22-855): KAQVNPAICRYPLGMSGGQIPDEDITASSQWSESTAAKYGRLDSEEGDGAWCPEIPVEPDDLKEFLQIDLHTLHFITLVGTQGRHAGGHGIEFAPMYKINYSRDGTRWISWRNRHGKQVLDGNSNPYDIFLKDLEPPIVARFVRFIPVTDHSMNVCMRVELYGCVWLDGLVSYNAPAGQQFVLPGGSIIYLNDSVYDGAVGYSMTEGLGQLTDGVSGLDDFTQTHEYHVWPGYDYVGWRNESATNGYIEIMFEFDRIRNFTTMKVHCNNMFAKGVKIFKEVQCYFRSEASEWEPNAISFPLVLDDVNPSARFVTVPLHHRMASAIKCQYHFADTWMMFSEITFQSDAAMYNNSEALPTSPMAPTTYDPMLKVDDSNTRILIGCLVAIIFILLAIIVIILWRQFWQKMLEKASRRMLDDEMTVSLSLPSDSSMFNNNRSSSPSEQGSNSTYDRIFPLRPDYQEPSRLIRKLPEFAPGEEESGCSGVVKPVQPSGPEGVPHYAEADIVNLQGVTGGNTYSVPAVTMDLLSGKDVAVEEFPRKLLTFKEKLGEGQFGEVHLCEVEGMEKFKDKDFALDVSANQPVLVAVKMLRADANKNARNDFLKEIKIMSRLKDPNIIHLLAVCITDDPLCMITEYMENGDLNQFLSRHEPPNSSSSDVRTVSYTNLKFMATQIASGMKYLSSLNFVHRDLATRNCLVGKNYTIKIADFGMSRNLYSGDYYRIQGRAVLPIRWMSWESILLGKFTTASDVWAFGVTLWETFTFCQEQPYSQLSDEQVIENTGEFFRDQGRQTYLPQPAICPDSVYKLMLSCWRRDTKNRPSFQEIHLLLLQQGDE
experimentalDetails: DDR2 LanthaScreen Europium Kinase Binding assay
conditionContext: binding; 5 nM DDR2, 10 nM Kinase Tracer 178, 1 hour at rt; Ki from IC50 by Cheng-Prusoff; read-out: Ki DDR2
Protocol: DDR1 and DDR2 binding assays were performed using Life Technologies LanthaScreen™ Europium Kinase Binding assay. […] The ratio of fluorescence emission 665 nm/615 nm after excitation at 340 nm was obtained using the Tecan Spark 20M plate reader. IC50 values were determined in GraphPad Prism 7.0 software, using 4 parameter model: log(inhibitor) vs. response. […]
pKi: −log10 of the molar value.
// reported pKi for each item listed

Please review the following examples before continuing.
compound: Cc1ccc(C(=O)Nc2cccc(C(F)(F)F)c2)cc1C1CCN(c2cncc(NCCN(C)C)c2)C1 (centres unmarked)
pKi: 7.22 to 7.60

compound: Cc1ccc(C(=O)Nc2cccc(C(F)(F)F)c2)cc1C1CCN(c2cncc(OCCN3CCN(C)CC3)c2)C1 (centres unmarked)
pKi: > 8.00

compound: COCCNC(=O)c1cncc(N2CCC(c3cc(C(=O)Nc4cccc(C(F)(F)F)c4)ccc3C)C2)c1 (centres unmarked)
pKi: 7.60 to 8.00

compound: Cc1ccc(C(=O)Nc2cccc(C(F)(F)F)c2)cc1[C@@H]1CCN(c2cncc(C(F)F)c2)C1
pKi: 7.60 to 8.00

Let us examine a further case.
IN: Fill in pKi for record Cc1ccc(C(=O)Nc2cccc(C(F)(F)F)c2)cc1[C@@H]1CCN(c2ccnc3[nH]ccc23)C1
OUT: 7.22 to 7.60

* * *

// reported Ki for each item listed
systemName: DDR2 (Homo sapiens (Human), UniProt Q16832)
experimentalDetails: DDR2 LanthaScreen Europium Kinase Binding assay
conditionContext: binding; 5 nM DDR2, 10 nM Kinase Tracer 178, 1 hour at rt; Ki from IC50 by Cheng-Prusoff; read-out: Ki DDR2

Please review the following examples before continuing.
compound: Cc1ccc(C(=O)Nc2cccc(C(F)(F)F)c2)cc1C1CCN(c2cncc(CN3CCOCC3)c2)C1 (centres unmarked)
systemName: DDR2 (Homo sapiens (Human), UniProt Q16832)
Ki: 10 to 25 nM
--
compound: COc1cncc(N2CCC(c3cc(C(=O)Nc4cccc(C(F)(F)F)c4)ccc3C)C2)c1 (centres unmarked)
systemName: DDR2 (Homo sapiens (Human), UniProt Q16832)
Ki: < 10 nM
--
compound: Cc1ccc(C(=O)Nc2cccc(C(F)(F)F)c2)cc1C1CCN(c2ccnc(C(N)=O)c2)C1 (racemic) [Example 53]
systemName: DDR2 (Homo sapiens (Human), UniProt Q16832)
Ki: < 10 nM
--
compound: Cc1ccc(C(=O)Nc2cccc(C(F)(F)F)c2)cc1[C@@H]1CCN(c2cncc(C(N)=O)c2)C1
systemName: DDR2 (Homo sapiens (Human), UniProt Q16832)
Ki: < 10 nM

Let us examine a further case.
IN: Please report Ki with DDR2 (Homo sapiens (Human), UniProt Q16832) for item CNC(=O)c1cncc(N2CC[C@@H](c3cc(C(=O)Nc4cccc(C(F)(F)F)c4)ccc3C)C2)c1 .
OUT: < 10 nM

* * *

systemName: DDR2 (Homo sapiens (Human))
experimentalDetails: DDR2 LanthaScreen Europium Kinase Binding assay
conditionContext: binding; 5 nM DDR2, 10 nM Kinase Tracer 178, 1 hour at rt; Ki from IC50 by Cheng-Prusoff; read-out: Ki DDR2
experimentalEndpoint: Ki

IN: Fill in Ki for record CNc1ncc(N2CC[C@@H](c3cc(C(=O)Nc4cccc(C(F)(F)F)c4)ccc3C)C2)cn1
OUT: 10 to 25 nM

IN: Fill in Ki for record Cc1ccc(C(=O)Nc2cccc(C(F)(F)F)c2)cc1C1CCN(c2cncc(Br)c2)C1 (stereo not drawn)
OUT: 25 to 60 nM

IN: Fill in Ki for record CNC(=O)c1cc(N2CC[C@@H](c3cc(C(=O)Nc4cccc(C(F)(F)F)c4)ccc3C)C2)ccn1
OUT: < 10 nM

* * *

systemName: DDR1 (Homo sapiens (Human))
experimentalDetails: DDR1 LanthaScreen Europium Kinase Binding assay
conditionContext: binding; 5 nM DDR1, 20 nM Kinase Tracer 178, 1 hour at rt; Ki from IC50 by Cheng-Prusoff; read-out: Ki DDR1
// reported Ki for each item listed

molecule: CNC(=O)c1cc(N2CC[C@H](c3cc(C(=O)Nc4cccc(C(F)(F)F)c4)ccc3C)C2)ccn1
systemName: DDR1 (Homo sapiens (Human))
experimentalEndpoint: Ki
value: < 10 nM

IN: Fill in Ki for record Cc1ccc(C(=O)Nc2cccc(C(F)(F)F)c2)cc1C1CCN(c2ccnc(C(N)=O)c2)C1 (single isomer, unassigned) [Example 55]
OUT: 10 to 25 nM

IN: Fill in Ki for record Cc1ccc(C(=O)Nc2cccc(C(F)(F)F)c2)cc1C1CCN(c2cncc(NCCN3CCOCC3)c2)C1 (centres unmarked)
OUT: < 10 nM

IN: Fill in Ki for record Cc1ccc(C(=O)Nc2ccc(CN(C)C)c(C(F)(F)F)c2)cc1[C@@H]1CCN(c2cncc(C(N)=O)c2)C1
OUT: < 10 nM

IN: Fill in Ki for record Cc1ccc(C(=O)Nc2cccc(C(F)(F)F)c2)cc1[C@@H]1CCN(c2cncc(C(=O)N3CCC(F)(F)CC3)c2)C1
OUT: 25 to 60 nM

IN: Fill in Ki for record Cc1ccc(C(=O)Nc2cccc(C(F)(F)F)c2)cc1C1CCN(c2cncc(Br)c2)C1 (centres unmarked)
OUT: 10 to 25 nM

IN: Fill in Ki for record Cc1ccc(C(=O)Nc2cccc(C(F)(F)F)c2)cc1[C@@H]1CCN(c2cncc(Nc3cnn(C)c3)c2)C1
OUT: < 10 nM

IN: Fill in Ki for record CC(=O)Nc1cc(N2CC[C@@H](c3cc(C(=O)Nc4cccc(C(F)(F)F)c4)ccc3C)C2)ccn1
OUT: < 10 nM

* * *

systemName: DDR1 (Homo sapiens (Human), UniProt Q08345)
Sequence (Q08345 19-913): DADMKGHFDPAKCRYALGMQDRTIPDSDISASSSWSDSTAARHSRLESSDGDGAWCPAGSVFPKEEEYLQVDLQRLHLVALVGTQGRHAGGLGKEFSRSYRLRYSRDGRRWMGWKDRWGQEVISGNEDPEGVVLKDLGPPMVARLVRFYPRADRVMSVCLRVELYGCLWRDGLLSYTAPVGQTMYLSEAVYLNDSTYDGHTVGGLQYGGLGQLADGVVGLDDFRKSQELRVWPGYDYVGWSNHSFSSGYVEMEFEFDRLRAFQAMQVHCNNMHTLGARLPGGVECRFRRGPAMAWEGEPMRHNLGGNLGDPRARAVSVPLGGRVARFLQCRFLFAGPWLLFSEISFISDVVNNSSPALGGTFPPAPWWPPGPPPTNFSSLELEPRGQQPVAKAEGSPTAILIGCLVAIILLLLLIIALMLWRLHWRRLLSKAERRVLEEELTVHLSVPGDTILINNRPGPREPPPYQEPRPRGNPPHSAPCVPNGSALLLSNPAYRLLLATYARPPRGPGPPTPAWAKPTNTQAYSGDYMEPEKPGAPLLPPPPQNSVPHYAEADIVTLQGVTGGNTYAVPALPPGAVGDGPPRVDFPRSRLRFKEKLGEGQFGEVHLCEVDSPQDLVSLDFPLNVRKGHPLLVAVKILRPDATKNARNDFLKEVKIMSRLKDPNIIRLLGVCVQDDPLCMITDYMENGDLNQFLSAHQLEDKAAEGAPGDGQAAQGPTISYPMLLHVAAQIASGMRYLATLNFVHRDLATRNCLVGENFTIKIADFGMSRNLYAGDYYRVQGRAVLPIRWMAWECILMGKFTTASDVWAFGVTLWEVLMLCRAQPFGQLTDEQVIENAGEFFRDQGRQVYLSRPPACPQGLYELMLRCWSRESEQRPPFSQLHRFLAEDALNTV
experimentalDetails: DDR1 LanthaScreen Europium Kinase Binding assay
conditionContext: binding; 5 nM DDR1, 20 nM Kinase Tracer 178, 1 hour at rt; Ki from IC50 by Cheng-Prusoff; read-out: Ki DDR1
pKi: −log10 of the molar value.
// reported pKi for each item listed

compound: Cc1ccc(C(=O)Nc2cccc(C(F)(F)F)c2)cc1[C@@H]1CCN(c2cnc(Nc3cnn(C)c3)nc2)C1
pKi: > 8.00
//
compound: CNC(=O)c1cc(N2CCC(c3cc(C(=O)Nc4cccc(C(F)(F)F)c4)ccc3C)C2)ccn1 (stereo not drawn)
pKi: > 8.00

IN: Fill in pKi for record COCCn1cc(Nc2cncc(N3CC[C@@H](c4cc(C(=O)Nc5cccc(C(F)(F)F)c5)ccc4C)C3)c2)cn1
OUT: > 8.00

These data points were gathered from patent US20240425482A1.
